Test system: SK-OV-3 ovarian
Experiment: NCI-60 one-dose screen, 48 h
Details: 10 µM
The panel holds about 83,000 compounds, 20% with a hit somewhere; the sample as a whole holds those more often. Active and inactive are the calls of the source. Rule for the calls: active = growth percent below 10; inactive = the rest.
Give your call using only these classes: y = active, n = inactive

{"Compound": "C#C[C@]1(O)CC[C@H]2[C@@H]3CC=C4c5sc(Nc6ccc(C(F)(F)F)cn6)nc5CC[C@]4(C)[C@H]3CC[C@@]21C", "Cat": "y"}
{"Compound": "Cc1cc(N=C2NC(=O)S/C2=C\\c2ccc(F)cc2)n[nH]1", "Cat": "n"}
{"Compound": "COc1ccc(Cn2cc(C#N)c(N)c2C(C)=O)c(OC)c1", "Cat": "n"}
{"Compound": "Cc1ccc2c(c1)C(=O)/C(=C/c1c[nH]c3ccccc13)S2", "Cat": "n"}
{"Compound": "COc1cc2oc(-c3cccc(C(=O)Nc4ccc(Cl)cc4)c3)cc(=O)c2c(OCCNC(=O)[C@@H](N)CO)c1OC", "Cat": "n"}
{"Compound": "COc1cc(Nc2nc(O)c(/C=C3\\C=Nc4ccccc43)s2)cc(OC)c1OC", "Cat": "y"}
{"Compound": "Cn1cc(-c2cc3nc(-c4c[nH]c5ccccc45)cc(N)n3n2)c2cc(Cl)ccc21", "Cat": "y"}
{"Compound": "O=C(CC(=O)Nc1ccc(Oc2ncnc3scc(Nc4n[nH]c(=S)s4)c23)cc1)Nc1ccc(Cl)cc1", "Cat": "n"}

Consider the record given below.
What outcome does the record of this test show for `O=C(Nc1ccc(OCC(=O)c2ccc(Cl)cc2)cc1)Nc1ccc(Cl)c(C(F)(F)F)c1` ?
n
